# study_target: CDK1/Cyclin B1 (Homo sapiens (Human))
# assay_procedure: CDK1/Cyclin B1 ADP-Glo Kinase Assay
# Type: biochemical
# experimental_context: ADP-Glo, 80 uM ATP; read-out: CDK1 Cyclin B1 IC50
property_name: IC50

Consider the reported IC50 for these compounds:
• FC(F)c1cc2cnc(Nc3ccc4c(c3)CN(C3CC3)C4)nc2c(N2CC3(CCNC3)C2)n1 [Compound 50] = 500 to 2000 nM
• Cc1cc2cnc(NC3CCN(S(C)(=O)=O)CC3)nc2c(N2CCC3(C2)CC(F)(F)C3)n1 [Compound 53] = > 2000 nM
• Cc1cc2cnc(Nc3ccc4c(c3)CN(C)C4)nc2c(N2CC3(C2)CN(C2CC2)C3)n1 [Compound 44] = > 2000 nM

Could you now look at the following compound, please?
In: // map CN1Cc2ccc(Nc3ncc4ccnc(N5CCC6(C5)CC6(F)F)c4n3)cc2C1 (stereo not shown) [Compound 22] to recorded IC50 (system: CDK1/Cyclin B1 (Homo sapiens (Human)))
Out: < 200 nM

====

# study_target: CDK1/Cyclin B1 (Homo sapiens (Human), UniProt P06493)
# Sequence (P06493 whole entry): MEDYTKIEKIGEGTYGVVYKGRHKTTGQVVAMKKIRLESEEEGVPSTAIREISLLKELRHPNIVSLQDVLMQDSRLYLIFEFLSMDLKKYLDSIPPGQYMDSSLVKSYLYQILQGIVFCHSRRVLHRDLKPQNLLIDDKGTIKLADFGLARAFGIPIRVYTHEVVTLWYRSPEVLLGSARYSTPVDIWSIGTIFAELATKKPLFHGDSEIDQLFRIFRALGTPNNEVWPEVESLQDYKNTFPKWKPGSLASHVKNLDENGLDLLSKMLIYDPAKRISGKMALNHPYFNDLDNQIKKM
# Sequence (P14635 whole entry partner): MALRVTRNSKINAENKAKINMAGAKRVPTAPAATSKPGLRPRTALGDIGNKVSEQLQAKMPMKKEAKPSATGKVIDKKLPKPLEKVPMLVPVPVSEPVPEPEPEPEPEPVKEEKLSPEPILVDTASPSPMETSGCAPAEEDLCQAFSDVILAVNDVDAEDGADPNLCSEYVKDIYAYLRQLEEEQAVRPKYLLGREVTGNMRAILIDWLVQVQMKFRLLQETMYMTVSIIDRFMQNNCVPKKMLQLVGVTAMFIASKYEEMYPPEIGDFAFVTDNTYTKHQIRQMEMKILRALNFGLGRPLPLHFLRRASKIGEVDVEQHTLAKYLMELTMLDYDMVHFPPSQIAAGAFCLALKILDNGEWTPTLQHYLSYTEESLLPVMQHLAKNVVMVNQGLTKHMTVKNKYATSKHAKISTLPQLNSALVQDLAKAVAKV
# assay_procedure: CDK1/Cyclin B1 ADP-Glo Kinase Assay
# Format: biochemical
# experimental_context: ADP-Glo, 80 uM ATP; read-out: CDK1 Cyclin B1 IC50
property_name: IC50

For every item below, please supply its IC50.
1. Cc1cc2cnc(NC3CC4CC3CN4C)nc2c(N2CCC3(C2)CC3(F)F)n1 (stereo not shown)
2. COC1CC2(C1)CN(c1nc(C)cc3cnc(NC4CCN(S(=O)(=O)C5CC5)CC4)nc13)C2

Out:
1. > 2000 nM
2. 200 to 500 nM

For every item below, please supply its IC50.
1. CN1CCn2nc(Nc3ncc4ccnc(N5CCC6(C5)CC6(F)F)c4n3)cc2C1 (stereo not shown)
2. Cc1cc2cnc(NC3CCN(S(=O)(=O)C4CC4)CC3)nc2c(N2CC3(CCN(C)C3)C2)n1
3. Cc1cc2cnc(NC3CCN(S(C)(=O)=O)CC3)nc2c(N2CC3(CNCC3F)C2)n1 (stereo not shown)
4. Cc1cc2cnc(NC3CCN(S(C)(=O)=O)CC3)nc2c(N2CC3(CNCC3(F)F)C2)n1
5. CN1CCC(n2cc(Nc3ncc4ccnc(N5CCC6(C5)CC6(F)F)c4n3)cn2)CC1 (stereo not shown)

Out:
1: > 2000 nM; 2: 500 to 2000 nM; 3: 200 to 500 nM; 4: < 200 nM; 5: 500 to 2000 nM

List IC50 for every entry below, keeping the order given.
1. Cc1cc2cnc(NC3CCN(S(C)(=O)=O)CC3)nc2c(N2CC3(CCC(=O)NC3)C2)n1
2. Cc1cc2cnc(NC3CCN(S(=O)(=O)C4CC4)CC3)nc2c(N2CCC(OC(F)F)C2)n1 (stereo not shown)
3. Cc1cc2cnc(NC3CCN(S(=O)(=O)c4cnn(C)c4)CC3)nc2c(N2CC(F)(F)C3(CNC3)C2)n1
4. CS(=O)(=O)N1CCC(Nc2ncc3cc(C(F)F)nc(N4CC5(CNCCC5(F)F)C4)c3n2)CC1
5. Cc1cc2cnc(NC3CCN(S(C)(=O)=O)CC3)nc2c(N2CC(F)(F)C3(CNC3)C2)n1

Out:
1: 200 to 500 nM; 2: < 200 nM; 3: < 200 nM; 4: < 200 nM; 5: < 200 nM

Required: IC50, one value per compound below.
1. CS(=O)(=O)N1CCC(Nc2ncc3ccnc(N4CCC5(C4)CC(F)(F)C5)c3n2)CC1
2. Cc1cc2cnc(NC3CCN(S(=O)(=O)C4CC4)CC3)nc2c(N2CC(OC3CC3)C2)n1
3. Cc1cc2cnc(NC3CCN(S(C)(=O)=O)CC3)nc2c(N2CC(O)(C(F)F)C2)n1
4. CS(=O)(=O)N1CCC(Nc2ncc3cc(C4CC4)nc(N4CC(F)(F)C5(CNC5)C4)c3n2)CC1

Out:
["< 200 nM", "200 to 500 nM", "< 200 nM", "< 200 nM"]

====

# study_target: CDK4/Cyclin D1 (Homo sapiens (Human), UniProt P11802)
# Sequence (P11802 whole entry): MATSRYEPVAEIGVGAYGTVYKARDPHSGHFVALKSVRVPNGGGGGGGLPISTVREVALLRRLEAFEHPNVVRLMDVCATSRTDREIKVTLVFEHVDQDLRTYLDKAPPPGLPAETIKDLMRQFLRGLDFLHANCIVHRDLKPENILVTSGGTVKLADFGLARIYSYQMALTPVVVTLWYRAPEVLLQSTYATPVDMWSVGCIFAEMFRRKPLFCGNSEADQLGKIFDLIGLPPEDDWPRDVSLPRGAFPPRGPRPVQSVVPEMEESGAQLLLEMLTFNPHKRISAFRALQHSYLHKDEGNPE
# Sequence (P24385 whole entry partner): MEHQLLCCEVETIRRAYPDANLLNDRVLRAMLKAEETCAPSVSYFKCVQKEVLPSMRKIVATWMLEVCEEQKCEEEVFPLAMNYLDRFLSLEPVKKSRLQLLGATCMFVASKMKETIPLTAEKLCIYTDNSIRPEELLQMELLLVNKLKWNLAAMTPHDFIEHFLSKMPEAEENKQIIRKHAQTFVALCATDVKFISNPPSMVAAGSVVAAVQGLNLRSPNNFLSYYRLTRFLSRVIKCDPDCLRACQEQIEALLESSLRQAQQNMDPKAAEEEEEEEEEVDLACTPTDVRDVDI
# assay_procedure: CDK4/Cyclin D1 CHEF Assay (AQT0258 peptide)
# Format: biochemical
# experimental_context: 200 uM ATP, read-out: CDK4/ CyclinD1 AQT IC50
pIC50: −log10 of the molar value.
Field: pIC50. Provide a value for each of the compounds that follow.

Here are 3 compounds together with their reported answers.
* [2H]C([2H])([2H])N1CC2(CN(c3nc(C)cc4cnc(NC5CCN(S(=O)(=O)c6cnn(C)c6)CC5)nc34)CC2(F)F)C1 | > 6.70
* CCS(=O)(=O)N1CCC(Nc2ncc3cc(C)nc(N4CC(F)(F)C5(CNC5)C4)c3n2)CC1 | > 6.70
* Cc1cc2cnc(NC3CCN(S(C)(=O)=O)CC3)nc2c(N2CC3(CN(C)C[C@@H]3F)C2)n1 | > 6.70

Value sought for every listed compound: pIC50.
1. Cc1cc2cnc(NC3CCN(S(C)(=O)=O)CC3)nc2c(N2CC3(C2)CC(C)(O)C3)n1
2. Cc1cc2cnc(Nc3ccc(N4CC5(CN(C)C5)C4)cc3)nc2c(N2CCC3(C2)CC3(F)F)n1 (stereo not drawn)
3. Cc1cc2cnc(NC3CCN(S(C)(=O)=O)CC3)nc2c(C2CC(O)(C(F)F)C2)n1 (stereo not drawn)
4. Cc1cc2cnc(Nc3cnn(C4CC5(C4)CN(C)C5)c3)nc2c(N2CCC3(C2)CC3(F)F)n1 (stereo not drawn)
5. Cc1cc2cnc(NC3CCN(S(=O)(=O)C4CC4)CC3)nc2c(N2CC3(CCNCC3(F)F)C2)n1

Out:
1. > 6.70
2. > 6.70
3. > 6.70
4. > 6.70
5. > 6.70

Please report pIC50 for every entry that follows.
1. CN1Cc2ccc(Nc3ncc4ccnc(N5CC6(C5)CS(=O)(=O)C6)c4n3)cc2C1
2. Cc1cc2cnc(Nc3cnn(CC4(N(C)C)CC4)c3)nc2c(N2CCC3(C2)CC3(F)F)n1 (stereo not drawn)
3. Cc1cc2cnc(Nc3ccc4c(c3)CN(C)C4)nc2c(N2CC3(C2)CN(C2CC2)C3)n1
4. Cc1cc2cnc(Nc3ccc(N4CC5(CN(C)C5)C4)cc3)nc2c(N2CCC3(CCOCC3)C2)n1

Out:
> 6.70
6.30 to 6.70
6.30 to 6.70
> 6.70

I need pIC50 for every entry listed below, if you could help.
1. Cc1cc2cnc(NC3CC4CC3CN4C)nc2c(N2CCC3(C2)CC3(F)F)n1 (stereo not drawn)
2. Cc1cc2cnc(NC3CCN(S(=O)(=O)CC4CCCC4)CC3)nc2c(N2CC3(CCNC3)C2)n1

Out:
1: > 6.70; 2: > 6.70

Hi team, please reply with pIC50 for each item in this list.
1. Cc1cc2cnc(NC3CCN(S(C)(=O)=O)CC3)nc2c(C2CC(O)(C3CC3)C2)n1 (stereo not drawn)
2. Cc1cc2cnc(NC3CCN(S(=O)(=O)C4CC4)CC3)nc2c(N2CC(F)(F)C3(CNC3)C2)n1
3. O=S(=O)(C1CC1)N1CCC(Nc2ncc3cc(C(F)F)nc(N4CC5(CCNC5)C4)c3n2)CC1
4. Cc1cc2cnc(NC3CCN(S(C)(=O)=O)CC3)nc2c(N2CC3(CC(O)C3)C2)n1
5. Cc1cc2cnc(NC3CCN(S(C)(=O)=O)CC3)nc2c(C2CC3(C2)CN(C)CCO3)n1 (stereo not drawn)
6. Cc1cc2cnc(NC3CCN(S(=O)(=O)c4cnn(C)c4)CC3)nc2c(N2CC(F)(F)C3(CNC3)C2)n1

Out:
["> 6.70", "> 6.70", "> 6.70", "> 6.70", "> 6.70", "> 6.70"]

====

For each record, write down the corresponding pIC50.
# study_target: CDK1/Cyclin B1 (Homo sapiens (Human), UniProt P06493)
# assay_procedure: CDK1/Cyclin B1 ADP-Glo Kinase Assay
# Format: biochemical
# experimental_context: ADP-Glo, 80 uM ATP; read-out: CDK1 Cyclin B1 IC50
pIC50: −log10 of the molar value.

* Cc1cc2cnc(Nc3ccc(CS(C)(=O)=O)cc3)nc2c(N2CC(O)(C3CC3)C2)n1 | 6.30 to 6.70
* Cc1cc2cnc(Nc3ccc4c(c3)CN(C3CN(S(C)(=O)=O)C3)C4)nc2c(N2CC3(CN(C)C3)C2)n1 | < 5.70
* Cc1cc2cnc(Nc3ccc(N4CC5(CN(C)C5)C4)cc3)nc2c(N2CCC3(CCOCC3)C2)n1 | < 5.70

Provide each entry's pIC50 from the list below.
1. CCN1CC2(C1)CN(c1ccc(Nc3ncc4ccnc(N5CCC6(CCOCC6)C5)c4n3)nc1)C2
2. Cc1cc2cnc(Nc3cnn(C4CN(CC#N)C4)c3)nc2c(N2CC3(CN(C)C3)C2)n1
3. Cc1cc2cnc(NC3CCN(S(C)(=O)=O)CC3)nc2c(N2CC3(CNC(=O)C3)C2)n1
4. COCCN1CC2(CC(c3nc(C4CC4)cc4cnc(NC5CCN(S(=O)(=O)CC6CCC6)CC5)nc34)C2)C1

Out:
["< 5.70", "< 5.70", "6.30 to 6.70", "5.70 to 6.30"]

These data points were gathered from patent US20240034731A1.
